- System: MDA-MB-468
- ASSAY_EXPLANATION: drug sensitivity score (DSS), CellTox Green (DSS (AUC-based score)); higher = stronger drug effect (viability inhibition or cytotoxicity); extreme values may be limits of the assay
- EXPERIMENTAL_CONDITIONS: incubation time: 72 h
OBSERVABLE: drug sensitivity score
Answer field: number only, no words.

Recorded drug sensitivity score, per entry:
O=C(Nc1ccncc1)C(=O)c1cn(Cc2ccc(Cl)cc2)c2ccccc12	3.09
COCC[n+]1c2c(n(Cc3cnccn3)c1C)C(=O)c1ccccc1C2=O	37.3
COc1cc(O)c2c(c1)/C=C/C[C@H](O)[C@H](O)C(=O)/C=C\C[C@H](C)OC2=O	0
CCOC(=O)CCNc1cc(N2CCc3ccccc3CC2)nc(-c2ccccn2)n1	12.3
C=C1C[C@@H]2[C@H](CC[C@]3(C)C(=O)CC[C@@H]23)[C@@]2(C)C=CC(=O)C=C12	0

Reported drug sensitivity score ( CNC(=O)c1ccc(N2C(=S)N(c3ccc(C#N)c(C(F)(F)F)c3)C(=O)C23CCC3)cc1F ) = 0

The recorded drug sensitivity score for Cc1cc(Nc2cc(CN3CCOCC3)c3nc(C)c(Cc4ccc(Cl)cc4F)n3n2)n[nH]1 is 3.86

Entry under test: Cc1ccc(NC(=O)c2ccc(CN3CCN(C)CC3)cc2)cc1Nc1nc(-c2cccnc2)cs1 . Its drug sensitivity score was 1.39
